target desc: C-src kinase (Homo sapiens, UniProt P12931)
Construct: made in house; host or cells: baculovirus-infected insect cells
Sequence (P12931 whole entry): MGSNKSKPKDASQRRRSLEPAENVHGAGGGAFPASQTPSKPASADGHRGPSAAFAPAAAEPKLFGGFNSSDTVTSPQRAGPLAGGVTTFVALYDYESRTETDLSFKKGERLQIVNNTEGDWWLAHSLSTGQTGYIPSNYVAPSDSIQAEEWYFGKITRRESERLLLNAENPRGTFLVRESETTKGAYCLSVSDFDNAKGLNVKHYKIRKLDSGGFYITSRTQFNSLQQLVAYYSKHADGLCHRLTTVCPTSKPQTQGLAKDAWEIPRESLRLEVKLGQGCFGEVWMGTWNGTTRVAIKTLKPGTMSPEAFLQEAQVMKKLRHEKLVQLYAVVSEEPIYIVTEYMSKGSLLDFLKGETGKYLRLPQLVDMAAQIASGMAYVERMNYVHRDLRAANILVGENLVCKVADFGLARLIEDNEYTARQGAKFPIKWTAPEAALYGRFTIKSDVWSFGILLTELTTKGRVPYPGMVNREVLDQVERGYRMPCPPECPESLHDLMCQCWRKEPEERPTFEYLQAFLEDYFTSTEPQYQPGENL
protocol details: C-src kinase assay
Assay type: biochemical
condition summary: read-out: Inhibition of Protein Tyrosine Kinases, C-src, IC50
assay readout: IC50
Report field: quantity (unit follows the number).

Worked cases, answers included:
smi: CC(C)(C)NC(=O)Nc1nc2nc(N)ncc2cc1-c1cccc(Cl)c1Cl
IC50: 3820 nM
//
smi: CCNC(=O)Nc1nc2nc(NCCCN(CC)CC)ncc2cc1-c1c(C)cccc1C
IC50: 24 nM
//
smi: Cc1ccccc1-c1cc2cnc(N)nc2nc1NC(=O)NC(C)(C)C
IC50: 407 nM

Batch of 4 compounds: report IC50 for each.
1. CCNC(=O)Nc1nc2nc(N)ncc2cc1-c1c(Cl)cccc1Cl
2. CCN(CC)CCCNc1ncc2cc(-c3c(Cl)cccc3Cl)c(N)nc2n1
3. COc1ccc(NC(=O)Nc2nc3nc(NCCCN4CCN(C)CC4)ncc3cc2-c2c(Cl)cccc2Cl)cc1
4. CCN(CC)CCCNc1ncc2cc(-c3c(Cl)cccc3Cl)c(NC(=O)NC(C)C)nc2n1

Reply:
["77 nM", "748 nM", "86 nM", "78 nM"]

----------
target desc: mouse PDGF-β receptor tyrosine kinase (Mus musculus)
Construct: a fragment of DNA that codes for the intracellular tyrosine kinase domain
protocol details: PDGF receptor tyrosine kinase assay
condition summary: read-out: Inhibition of Protein Tyrosine Kinases, PDGF, IC50
assay readout: IC50 (µM)
One number for each entry, in µM.

smi: Nc1ncc2cc(-c3c(Cl)cccc3Br)c(N)nc2n1
endpoint value: 36.7
//
smi: CCCCNc1nc2nc(N)ncc2cc1-c1ccccc1
endpoint value: 25.1
//
smi: CCN(CC)CCCNc1ncc2cc(-c3c(Br)cccc3Br)c(N)nc2n1
endpoint value: 45.6
//
smi: Cc1cc(C)c(C)c(-c2cc3cnc(NCCCN4CCN(C)CC4)nc3nc2N)c1C
endpoint value: 3.84
//
smi: Cc1cc(C)c(-c2cc3cnc(N)nc3nc2NC(=O)NC(C)(C)C)c(C)c1
endpoint value: 1.73

Batch of 4 compounds: report IC50 for each.
1. CCCCNC(=O)Nc1ncc2cc(-c3c(Cl)cccc3Cl)c(NC(=O)NCCCC)nc2n1
2. CCCNC(=O)Nc1nc2nc(N)ncc2cc1-c1c(Cl)cccc1Cl
3. CCNC(=O)Nc1nc2nc(NCCCN(CC)CC)ncc2cc1-c1c(Cl)cccc1Cl
4. CCN(CC)C(=O)Nc1nc2nc(NCCCN3CCN(C)CC3)ncc2cc1-c1c(Cl)cccc1Cl

Reply:
6.04
1.08
1.26
62.4

----------
target desc: human FGF-1 (flg) receptor tyrosine kinase (Homo sapiens, UniProt P11362)
Construct: a fragment of DNA that codes for the intracellular tyrosine kinase domain
Sequence (P11362 478-767 limits assumed): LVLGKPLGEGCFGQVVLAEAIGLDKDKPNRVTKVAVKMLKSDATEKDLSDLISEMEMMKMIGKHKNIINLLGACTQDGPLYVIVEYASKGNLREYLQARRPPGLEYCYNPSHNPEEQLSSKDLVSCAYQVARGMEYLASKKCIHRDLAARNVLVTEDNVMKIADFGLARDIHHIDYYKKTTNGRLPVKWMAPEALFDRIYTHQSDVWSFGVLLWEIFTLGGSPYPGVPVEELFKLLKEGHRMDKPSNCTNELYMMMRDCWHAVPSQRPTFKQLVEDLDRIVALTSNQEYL
protocol details: FGF receptor tyrosine kinase assay
condition summary: read-out: Inhibition of Protein Tyrosine Kinases, FGF, IC50
Kindly supply the reported pIC50 values for the records listed here.
Give bare numbers, as −log10 of the molar value.

smi: Nc1ncc2cc(-c3c(Cl)cccc3Cl)c(NC3=NCCO3)nc2n1
pIC50: 5.14

Batch of 4 molecules: report pIC50 for each.
1. CCNC(=O)Nc1nc2nc(NCCN(CC)CC)ncc2cc1-c1c(Cl)cccc1Cl
2. Cc1cc(C)c(C)c(-c2cc3cnc(NCCCN4CCN(C)CC4)nc3nc2N)c1C
3. CC(C)NC(=O)Nc1nc2nc(N)ncc2cc1-c1c(Cl)cccc1Cl
4. CN1CCN(CCCNc2ncc3cc(-c4c(Cl)cccc4Cl)c(NC(=O)Nc4ccccc4)nc3n2)CC1

Reply:
5.86
5.49
6.95
7.08

----------
target desc: human FGF-1 (flg) receptor tyrosine kinase (Homo sapiens, UniProt P11362)
Construct: a fragment of DNA that codes for the intracellular tyrosine kinase domain
protocol details: FGF receptor tyrosine kinase assay
condition summary: read-out: Inhibition of Protein Tyrosine Kinases, FGF, IC50
Threshold check on IC50: strictly below 300 nM is True; on or above 300 nM is False.

Example cases with answers are listed next.
compound: Cc1cccc(C)c1-c1cc2cnc(N)nc2nc1NC(=O)NC(C)(C)C
target desc: human FGF-1 (flg) receptor tyrosine kinase (Homo sapiens, UniProt P11362)
label value: False

compound: Cc1cc(C)c(C)c(-c2cc3cnc(N)nc3nc2N)c1C
target desc: human FGF-1 (flg) receptor tyrosine kinase (Homo sapiens, UniProt P11362)
label value: False

compound: CN1CCN(CCCNc2ncc3cc(-c4c(Cl)cccc4Cl)c(NC(=S)NC(C)(C)C)nc3n2)CC1
target desc: human FGF-1 (flg) receptor tyrosine kinase (Homo sapiens, UniProt P11362)
label value: True

Ask: Consider the compound Cc1cc(C)c(-c2cc3cnc(N)nc3nc2NC(=O)NC(C)(C)C)c(C)c1 . Is its IC50 strictly less than 300 nM?
Reply: False

Ask: Consider the compound Nc1ncc2cc(-c3c(Br)cccc3Br)c(N)nc2n1 . Is its IC50 strictly less than 300 nM?
Reply: False

Ask: Consider the compound CCN(CC)CCNc1ncc2cc(-c3c(Cl)cccc3Cl)c(NC(=O)NC(C)(C)C)nc2n1 . Is its IC50 strictly less than 300 nM?
Reply: False

Ask: Consider the compound CCNC(=O)Nc1nc2nc(N)ncc2cc1-c1c(Cl)cccc1Cl . Is its IC50 strictly less than 300 nM?
Reply: True

Ask: Consider the compound CCCNC(=O)Nc1nc2nc(N)ncc2cc1-c1c(Cl)cccc1Cl . Is its IC50 strictly less than 300 nM?
Reply: True

Ask: Consider the compound CCN(CC)CCCCNc1ncc2cc(-c3c(Cl)cccc3Cl)c(N)nc2n1 . Is its IC50 strictly less than 300 nM?
Reply: False

----------
Kindly supply the reported pIC50 values for the records listed here.
target desc: mouse PDGF-β receptor tyrosine kinase (Mus musculus)
Construct: a fragment of DNA that codes for the intracellular tyrosine kinase domain
protocol details: PDGF receptor tyrosine kinase assay
condition summary: read-out: Inhibition of Protein Tyrosine Kinases, PDGF, IC50
Give bare numbers, as −log10 of the molar value.

compound: CCN(CC)CCCCNc1ncc2cc(-c3c(Cl)cccc3Cl)c(NC(=S)NCCCN3CCOCC3)nc2n1 [Example 122]
endpoint value: 5.84
//
compound: Cc1ccccc1-c1cc2cnc(N)cc2nc1N [Example 16, 3-o-Tolyl-[1,6]naphthyridine-2,7-diamine]
endpoint value: 4.97
//
compound: CN1CCN(CCCNc2ncc3cc(-c4c(Cl)cccc4Cl)c(NC(=S)NC(C)(C)C)nc3n2)CC1 [Example 118]
endpoint value: 5.72

Ask: # lookup: pIC50 of CN1CCN(CCCNc2ncc3cc(-c4c(Cl)cccc4Cl)c(NC(=O)Nc4cccc5ccccc45)nc3n2)CC1 [Example 50]
Reply: 5.59

----------
target desc: human FGF-1 (flg) receptor tyrosine kinase (Homo sapiens, UniProt P11362)
Construct: a fragment of DNA that codes for the intracellular tyrosine kinase domain; made in house; host or cells: Sf9 insect cells (baculovirus), cell lysate
protocol details: FGF receptor tyrosine kinase assay
Format: biochemical
condition summary: at 50 μM; read-out: Inhibition of Protein Tyrosine Kinases, FGF, % Inhibition
Kindly supply the reported inhibition at 50 µM values for the records listed here.
Answers are plain numbers, in %.

Worked cases, answers included:
smi: CN1CCN(CCCNc2ncc3cc(-c4c(Cl)cccc4Cl)c(NC4=NCCCO4)nc3n2)CC1
endpoint value: 97.9
//
smi: Cc1ccccc1-c1cc2cnc(NC(=O)NC(C)(C)C)nc2nc1NC(=O)NC(C)(C)C
endpoint value: 21.5
//
smi: Nc1ncc2cc(-c3cccnc3)c(N)nc2n1
endpoint value: 37.2
//
smi: COc1cccc(OC)c1-c1cc2cnc(N)nc2nc1N
endpoint value: 23.8

Batch of 3 molecules: report inhibition at 50 µM for each.
1. COc1ccccc1-c1cc2cnc(N)nc2nc1N
2. Nc1ncc2cc(-c3ccccn3)c(N)nc2n1
3. Nc1ncc2cc(-c3ccncc3)c(N)nc2n1

Reply:
1. 27.1
2. 47.7
3. 10.3

----------
target desc: mouse PDGF-β receptor tyrosine kinase (Mus musculus, UniProt P05622)
Construct: a fragment of DNA that codes for the intracellular tyrosine kinase domain
Sequence (P05622 599-961 limits assumed): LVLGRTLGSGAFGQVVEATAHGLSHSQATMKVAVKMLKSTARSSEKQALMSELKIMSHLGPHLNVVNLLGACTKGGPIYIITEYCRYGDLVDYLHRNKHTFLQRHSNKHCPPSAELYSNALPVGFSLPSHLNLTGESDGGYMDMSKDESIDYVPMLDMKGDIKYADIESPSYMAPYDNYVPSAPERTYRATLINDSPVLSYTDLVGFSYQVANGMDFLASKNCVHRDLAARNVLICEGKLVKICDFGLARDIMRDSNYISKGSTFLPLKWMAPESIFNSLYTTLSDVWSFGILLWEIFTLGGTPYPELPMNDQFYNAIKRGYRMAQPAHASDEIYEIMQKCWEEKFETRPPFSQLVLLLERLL
protocol details: PDGF receptor tyrosine kinase assay
condition summary: read-out: Inhibition of Protein Tyrosine Kinases, PDGF, IC50
assay readout: IC50 (µM)
Give bare numbers, in µM.

Worked cases, answers included:
compound: Nc1ncc2cc(-c3c(F)cccc3F)c(N)nc2n1 [Example 63]
endpoint value: 7.01

compound: Cc1cc(C)c(-c2cc3cnc(N)nc3nc2N)c(C)c1 [Example 96]
endpoint value: 27.4

compound: CC(C)(C)NC(=O)Nc1nc2nc(N)ncc2cc1-c1ccncc1 [Example 110]
endpoint value: 11.5

compound: COc1cccc(-c2cc3cnc(N)nc3nc2NC(=O)NC(C)(C)C)c1 [Example 103]
endpoint value: 19.6

// switching to the query compound
Ask: # lookup: IC50 of C=CCNC(=O)Nc1nc2nc(NCCCN3CCN(C)CC3)ncc2cc1-c1c(Cl)cccc1Cl [Example 40]
Reply: 0.697
